EXPERIMENTAL_TARGET: STAT3 (Homo sapiens)
Construct: made in house; host or cells: HEK293 (transient transfection), unpurified extract
Sequence (P40763 whole entry): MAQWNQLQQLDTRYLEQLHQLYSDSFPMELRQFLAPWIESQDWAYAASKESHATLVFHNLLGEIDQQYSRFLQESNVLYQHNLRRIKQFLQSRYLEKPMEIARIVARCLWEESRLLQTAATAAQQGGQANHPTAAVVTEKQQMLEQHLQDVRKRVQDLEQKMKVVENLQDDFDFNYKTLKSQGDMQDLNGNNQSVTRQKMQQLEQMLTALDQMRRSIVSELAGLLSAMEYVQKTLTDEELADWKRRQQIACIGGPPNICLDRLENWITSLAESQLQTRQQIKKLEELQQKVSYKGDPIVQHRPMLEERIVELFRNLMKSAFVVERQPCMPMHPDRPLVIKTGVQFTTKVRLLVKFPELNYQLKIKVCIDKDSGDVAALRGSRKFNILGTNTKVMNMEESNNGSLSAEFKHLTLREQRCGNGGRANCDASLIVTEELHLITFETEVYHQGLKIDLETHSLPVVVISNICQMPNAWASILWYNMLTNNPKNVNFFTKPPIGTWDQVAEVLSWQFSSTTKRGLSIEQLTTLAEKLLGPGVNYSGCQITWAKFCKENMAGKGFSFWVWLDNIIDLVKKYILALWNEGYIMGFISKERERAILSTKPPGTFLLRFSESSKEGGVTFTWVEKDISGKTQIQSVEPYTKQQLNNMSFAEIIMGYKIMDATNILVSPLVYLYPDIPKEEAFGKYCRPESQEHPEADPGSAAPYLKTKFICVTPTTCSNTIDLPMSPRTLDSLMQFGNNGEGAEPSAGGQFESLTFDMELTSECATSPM
EXPERIMENTAL_PROTOCOL: biochemical
Format: binding
ASSAY_CONDITIONS: primary screen, 10 μM; read-out: percent of DMSO vehicle control
MEASUREMENT_NAME: remaining activity at 10 µM (%)
One number for each entry, in %.

STRUCTURE: CC(C)(C)[C@H](NC(=O)/C=C/c1ccc(OP(=O)(O)O)cc1)C(=O)N1CCC[C@H]1C(=O)N(c1ccccc1)c1ccc(I)cc1
OBS_VALUE: 0.7
//
STRUCTURE: O=C(CCl)Nc1cccc(CNC(=O)[C@H](Cc2ccc(OP(=O)(O)O)cc2)NC(=O)Cc2ccc(F)cc2)c1
OBS_VALUE: 67.8
//
STRUCTURE: C/C(=C\C(=O)N[C@H](C(=O)N1CCC[C@H]1C(=O)N(c1ccccc1)c1ccc(I)cc1)C(C)(C)C)c1ccc(OP(=O)(O)O)cc1
OBS_VALUE: 0

Moving on to the next compound.
**Query** GET /values?readout=remaining activity at 10 µM&item= O=C(COc1ccc2cc(C(=O)Nc3ccccc3)ccc2c1)NCc1ccc(OP(=O)(O)O)c(OP(=O)(O)O)c1
**Result** 66.9
